- Measurement target: T1, His10/Avi Human IL33-01 (human)
- T1 chain: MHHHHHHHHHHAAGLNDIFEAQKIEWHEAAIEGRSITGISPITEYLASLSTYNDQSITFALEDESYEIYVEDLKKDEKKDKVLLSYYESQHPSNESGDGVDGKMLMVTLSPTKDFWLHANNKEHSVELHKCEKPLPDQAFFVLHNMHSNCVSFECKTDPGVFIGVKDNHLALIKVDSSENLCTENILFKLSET
- Experiment notes: cell-based or functional assay
Measured parameter: IC50 (nM) vs. His Avi IL-33, Huvec IL-8 assay
// note: answer is a bare numeric in nM

Exercise: Fill in the blank: the reported IC50 (nM) vs. His Avi IL-33, Huvec IL-8 assay of 33_640087-7B IgG1 (antibody, V domains shown, IgG1) VH: EVQLLESGGGLVQPGGSLRLSCAASGFTFSSYAMSWVRQAPGKGLEWVSGISAIDQSTYYADSVKGRFTISRDNSKNTLYLQMNSLRAEDTAVYYCARQKFMQLWGGGLRYPFGYWGQGTMVTVSS VL: SYVLTQPPSVSVSPGQTASITCSGEGMGDKYAAWYQQKPGQSPVLVIYRDTKRPSGIPERFSGSNSGNTATLTISGTQAMDEADYYCGVIQDNTGVFGGGTKLTVL is ____.
Key: 0.046
